# measurement.notes: MTT cytotoxicity assay in uninduced TBP/Q79-GFP SH-SY5Y cells
# Type: cell-based
# experimental.parameters: human; uninduced TBP/Q79-GFP SH-SY5Y cells, MTT, compounds 0.1−100 μM for 24 h; read-out: IC50 cytotoxicity
# Protocol: Compound cytotoxicity was assessed by colorimetric assay measuring cell metabolic activity. […] After one day, cell viability was measured based on reduction of 3,(4,5-dimethylthiazol-2-yl)-2,5-diphenyltetrazolium bromide (MTT), and the absorbance of the insoluble purple formazan product at OD 570 nm was read by a FLx800 fluorescence microplate reader (Bio-Tek, Winooski, VT, USA).
metric: IC50 at 24 h (µM)
Give just the number in µM; leave the unit off.

Exam item: Param item = C=CC(C)(C)c1cc(/C=C/C(=O)c2ccc(O)cc2)c(OC)cc1O [licochalcone A, reference compound] ; retrieve measured IC50 at 24 h.
Marked response: 57

* * *

Each entry below lists one item and its recorded IC50 at 24 h value.
# measurement.notes: MTT cytotoxicity assay in uninduced TBP/Q79-GFP 293 cells
# Type: cell-based
# experimental.parameters: human
Give just the number in µM; leave the unit off.

Consider the following illustrative entries.
structure	units.text	experimental.value
COc1ccc(C(=O)/C=C/c2cc(Br)ccc2O)cc1	µM	45
COc1ccc(O)c(/C=C/C(=O)c2ccccc2)c1	µM	47

Exam item: Param item = COc1cccc(/C=C/C(=O)c2ccc(O)cc2)c1O ; retrieve measured IC50 at 24 h.
Marked response: 53

Values were extracted from paper PMC7195640.
